# test_system: Transient receptor potential cation channel subfamily V member 1 (Homo sapiens)
# Sequence (Q8NER1 whole entry): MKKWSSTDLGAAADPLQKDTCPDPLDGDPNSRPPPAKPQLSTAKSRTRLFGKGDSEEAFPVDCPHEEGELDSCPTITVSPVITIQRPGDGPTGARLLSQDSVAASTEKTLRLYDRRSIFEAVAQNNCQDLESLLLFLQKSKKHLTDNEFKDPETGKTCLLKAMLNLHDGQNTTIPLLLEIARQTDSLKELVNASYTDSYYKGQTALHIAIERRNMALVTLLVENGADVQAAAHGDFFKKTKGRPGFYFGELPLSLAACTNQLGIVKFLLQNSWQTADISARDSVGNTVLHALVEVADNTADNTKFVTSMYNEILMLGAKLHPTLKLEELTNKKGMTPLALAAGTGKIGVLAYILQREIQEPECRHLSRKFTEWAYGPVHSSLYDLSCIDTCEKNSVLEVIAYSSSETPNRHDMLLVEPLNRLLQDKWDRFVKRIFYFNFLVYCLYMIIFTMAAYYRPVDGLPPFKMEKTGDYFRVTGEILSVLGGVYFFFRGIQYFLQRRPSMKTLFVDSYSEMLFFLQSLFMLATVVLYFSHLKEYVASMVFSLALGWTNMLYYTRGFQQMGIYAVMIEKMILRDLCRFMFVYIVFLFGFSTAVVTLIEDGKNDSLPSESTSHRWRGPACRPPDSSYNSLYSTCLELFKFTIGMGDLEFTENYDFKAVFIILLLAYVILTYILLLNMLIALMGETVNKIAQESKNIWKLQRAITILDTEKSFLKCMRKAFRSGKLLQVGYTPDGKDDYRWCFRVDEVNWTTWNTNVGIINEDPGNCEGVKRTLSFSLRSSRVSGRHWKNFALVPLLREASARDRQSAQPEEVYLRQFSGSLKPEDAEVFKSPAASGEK
# assay_method_text: Antagonist activity at human TRPV1 expressed in CHO cells assessed as inhibition of capsaicin-stimulated Ca2+ uptake
# Format: cell-based
Measured Ki, listed per entry for reference.
// return numeric value only (unit: nM, not printed)

INSERT INTO results (smiles_structure, experimental_readout, reading) VALUES
  ('C=C(C)[C@]12C[C@@H](C)[C@@]34O[C@](Cc5ccccc5)(O[C@@H]1[C@@H]3C=C(COC(=O)Oc1cc(Br)c(N)c(OC)c1)C[C@]1(O)C(=O)C(C)=C[C@@H]41)O2', 'Ki', 666);

Exercise: If you can, please state the reported Ki value of C=C(C)[C@]12C[C@@H](C)[C@@]34O[C@](Cc5ccccc5)(O[C@@H]1[C@@H]3C=C(COC(=O)Oc1cc(I)c(O)c(OC)c1)C[C@]1(O)C(=O)C(C)=C[C@@H]41)O2 .
Key: 189

Exercise: If you can, please state the reported Ki value of C=C(C)[C@]12C[C@@H](C)[C@@]34O[C@](Cc5ccccc5)(O[C@@H]1[C@@H]3C=C(COC(=O)Oc1cc(Cl)c(N)c(OC)c1)C[C@]1(O)C(=O)C(C)=C[C@@H]41)O2 .
Key: 1400

Exercise: If you can, please state the reported Ki value of C=C(C)[C@]12C[C@@H](C)[C@@]34O[C@](Cc5ccccc5)(O[C@@H]1[C@@H]3C=C(COC(=O)Oc1cc(I)c(N)c(OC)c1)C[C@]1(O)C(=O)C(C)=C[C@@H]41)O2 .
Key: 1800

---

# test_system: Transient receptor potential cation channel subfamily V member 1 (Rattus norvegicus)
# assay_method_text: Displacement of [3H]RTX from rat TRPV1 expressed in CHO cells
# Format: cell-based
Measured Ki, listed per entry for reference.
// return numeric value only (unit: nM, not printed)

// below: answered compounds
INSERT INTO results (smiles_structure, unit_name, reading) VALUES
  ('C=C(C)[C@]12C[C@@H](C)[C@@]34O[C@](Cc5ccccc5)(O[C@@H]1[C@@H]3C=C(COC(=O)Oc1cc(Br)c(O)c(OC)c1)C[C@]1(O)C(=O)C(C)=C[C@@H]41)O2', 'nM', 1.64),
  ('C=C(C)[C@]12C[C@@H](C)[C@@]34O[C@](Cc5ccccc5)(O[C@@H]1[C@@H]3C=C(COC(=O)Oc1cc(Cl)c(O)c(OC)c1)C[C@]1(O)C(=O)C(C)=C[C@@H]41)O2', 'nM', 1.64);

Let's switch to this compound now.
Exercise: If you can, please state the reported Ki value of C=C(C)[C@]12C[C@@H](C)[C@@]34O[C@](Cc5ccccc5)(O[C@@H]1[C@@H]3C=C(COC(=O)Oc1cc(F)c(N)c(OC)c1)C[C@]1(O)C(=O)C(C)=C[C@@H]41)O2 .
Key: 2.21

---

Measured Ki, listed per entry for reference.
# test_system: Transient receptor potential cation channel subfamily V member 1 (Rattus norvegicus, UniProt O35433)
# Sequence (O35433 whole entry): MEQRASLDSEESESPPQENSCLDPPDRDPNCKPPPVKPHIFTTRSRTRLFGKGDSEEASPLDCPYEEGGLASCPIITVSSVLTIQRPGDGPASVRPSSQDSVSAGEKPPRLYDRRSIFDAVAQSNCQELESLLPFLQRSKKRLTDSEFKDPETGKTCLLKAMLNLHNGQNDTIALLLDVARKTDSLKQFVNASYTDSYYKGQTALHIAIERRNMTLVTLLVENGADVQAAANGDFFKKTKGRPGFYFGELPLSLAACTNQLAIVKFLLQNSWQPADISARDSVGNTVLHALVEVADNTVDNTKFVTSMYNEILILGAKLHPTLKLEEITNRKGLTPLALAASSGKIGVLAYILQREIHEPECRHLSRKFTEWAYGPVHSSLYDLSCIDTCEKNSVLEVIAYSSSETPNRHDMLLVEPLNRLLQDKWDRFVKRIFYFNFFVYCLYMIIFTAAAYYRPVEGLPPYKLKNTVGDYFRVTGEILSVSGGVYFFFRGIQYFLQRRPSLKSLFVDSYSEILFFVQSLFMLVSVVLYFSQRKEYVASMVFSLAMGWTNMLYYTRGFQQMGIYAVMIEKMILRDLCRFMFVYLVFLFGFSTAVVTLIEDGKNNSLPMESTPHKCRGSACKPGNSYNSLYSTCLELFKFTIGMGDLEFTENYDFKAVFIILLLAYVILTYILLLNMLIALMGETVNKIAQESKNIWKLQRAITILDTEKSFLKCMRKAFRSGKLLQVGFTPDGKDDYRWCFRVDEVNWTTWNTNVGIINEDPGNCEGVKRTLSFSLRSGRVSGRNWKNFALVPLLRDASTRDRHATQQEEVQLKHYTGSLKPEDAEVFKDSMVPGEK
# assay_method_text: Displacement of [3H]RTX from rat TRPV1 expressed in CHO cells
# Type: cell-based
// return numeric value only (unit: nM, not printed)

INSERT INTO assay_data (smiles_structure, reading) VALUES
  ('C=C(C)[C@]12C[C@@H](C)[C@@]34O[C@](Cc5ccccc5)(O[C@@H]1[C@@H]3C=C(COC(=O)Oc1cc(Br)c(N)c(OC)c1)C[C@]1(O)C(=O)C(C)=C[C@@H]41)O2', 1.83),
  ('C=C(C)[C@]12C[C@@H](C)[C@@]34O[C@](Cc5ccccc5)(O[C@@H]1[C@@H]3C=C(COC(=O)Oc1ccc(NS(C)(=O)=O)c(OC)c1)C[C@]1(O)C(=O)C(C)=C[C@@H]41)O2', 1.28),
  ('C=C(C)[C@]12C[C@@H](C)[C@@]34O[C@](Cc5ccccc5)(O[C@@H]1[C@@H]3C=C(COC(=O)Oc1ccc(N)c(OC)c1)C[C@]1(O)C(=O)C(C)=C[C@@H]41)O2', 0.58);

Let's switch to this compound now.
Exercise: If you can, please state the reported Ki value of C=C(C)[C@]12C[C@@H](C)[C@@]34O[C@](Cc5ccccc5)(O[C@@H]1[C@@H]3C=C(COC(=O)Oc1cc(I)c(N)c(OC)c1)C[C@]1(O)C(=O)C(C)=C[C@@H]41)O2 .
Key: 3.01

---

# test_system: Transient receptor potential cation channel subfamily V member 1 (Homo sapiens)
# assay_method_text: Antagonist activity at human TRPV1 expressed in CHO cells assessed as inhibition of capsaicin-stimulated Ca2+ uptake
# Format: cell-based
experimental_readout: pKi
FYI, pKi means -log10 of a concentration in mol per litre.

// below: answered molecules
INSERT INTO results (molecule, reading) VALUES
  ('C=C(C)[C@]12C[C@@H](C)[C@@]34O[C@](Cc5ccccc5)(O[C@@H]1[C@@H]3C=C(COC(=O)Oc1cc(Br)c(O)c(OC)c1)C[C@]1(O)C(=O)C(C)=C[C@@H]41)O2', 6.29),
  ('C=C(C)[C@]12C[C@@H](C)[C@@]34O[C@](Cc5ccccc5)(O[C@@H]1[C@@H]3C=C(COC(=O)Oc1cc(Cl)c(O)c(OC)c1)C[C@]1(O)C(=O)C(C)=C[C@@H]41)O2', 6.35);

Let's switch to this molecule now.
Exercise: If you can, please state the reported pKi value of C=C(C)[C@]12C[C@@H](C)[C@@]34O[C@](Cc5ccccc5)(O[C@@H]1[C@@H]3C=C(COC(=O)Cc1cc(I)c(O)c(OC)c1)C[C@]1(O)C(=O)C(C)=C[C@@H]41)O2 [IODORESINIFERATOXIN] .
Key: 8.23

---

# test_system: UniProtKB Q8NER1
# assay_method_text: Displacement of [3H]RTX from human TRPV1 expressed in CHO cells
# Assay type: cell-based
Kindly note that classification relies on Ki with these boundaries: Low: < 50 nM; Medium: ≥ 50 nM and < 200 nM; High: ≥ 200 nM

INSERT INTO results (smiles_structure, test_system, assigned_class) VALUES
  ('C=C(C)[C@]12C[C@@H](C)[C@@]34O[C@](Cc5ccccc5)(O[C@@H]1[C@@H]3C=C(COC(=O)Cc1ccc(O)c(OC)c1)C[C@]1(O)C(=O)C(C)=C[C@@H]41)O2', 'UniProtKB Q8NER1', 'Low'),
  ('C=C(C)[C@]12C[C@@H](C)[C@@]34O[C@](Cc5ccccc5)(O[C@@H]1[C@@H]3C=C(COC(=O)Cc1cc(I)c(O)c(OC)c1)C[C@]1(O)C(=O)C(C)=C[C@@H]41)O2', 'UniProtKB Q8NER1', 'Low'),
  ('C=C(C)[C@]12C[C@@H](C)[C@@]34O[C@](Cc5ccccc5)(O[C@@H]1[C@@H]3C=C(COC(=O)Oc1cc(F)c(O)c(OC)c1)C[C@]1(O)C(=O)C(C)=C[C@@H]41)O2', 'UniProtKB Q8NER1', 'Medium');

Exercise: State the class of the molecule shown: C=C(C)[C@]12C[C@@H](C)[C@@]34O[C@](Cc5ccccc5)(O[C@@H]1[C@@H]3C=C(COC(=O)Oc1cc(I)c(N)c(OC)c1)C[C@]1(O)C(=O)C(C)=C[C@@H]41)O2
Key: High

Exercise: State the class of the molecule shown: C=C(C)[C@]12C[C@@H](C)[C@@]34O[C@](Cc5ccccc5)(O[C@@H]1[C@@H]3C=C(COC(=O)Oc1cc(Br)c(O)c(OC)c1)C[C@]1(O)C(=O)C(C)=C[C@@H]41)O2
Key: Low

Exercise: State the class of the molecule shown: C=C(C)[C@]12C[C@@H](C)[C@@]34O[C@](Cc5ccccc5)(O[C@@H]1[C@@H]3C=C(COC(=O)Oc1cc(F)c(N)c(OC)c1)C[C@]1(O)C(=O)C(C)=C[C@@H]41)O2
Key: High

Exercise: State the class of the molecule shown: C=C(C)[C@]12C[C@@H](C)[C@@]34O[C@](Cc5ccccc5)(O[C@@H]1[C@@H]3C=C(COC(=O)Oc1cc(Cl)c(N)c(OC)c1)C[C@]1(O)C(=O)C(C)=C[C@@H]41)O2
Key: High

Exercise: State the class of the molecule shown: C=C(C)[C@]12C[C@@H](C)[C@@]34O[C@](Cc5ccccc5)(O[C@@H]1[C@@H]3C=C(COC(=O)Oc1cc(Br)c(N)c(OC)c1)C[C@]1(O)C(=O)C(C)=C[C@@H]41)O2
Key: High

Exercise: State the class of the molecule shown: C=C(C)[C@]12C[C@@H](C)[C@@]34O[C@](Cc5ccccc5)(O[C@@H]1[C@@H]3C=C(COC(=O)Oc1ccc(N)c(OC)c1)C[C@]1(O)C(=O)C(C)=C[C@@H]41)O2
Key: Medium

Exercise: State the class of the molecule shown: C=C(C)[C@]12C[C@@H](C)[C@@]34O[C@](Cc5ccccc5)(O[C@@H]1[C@@H]3C=C(COC(=O)Oc1ccc(NS(C)(=O)=O)c(OC)c1)C[C@]1(O)C(=O)C(C)=C[C@@H]41)O2
Key: Medium
